Readings of fraction unbound for the listed molecules
# test method notes: Protein binding in human plasma
# Type: ADME, cell-free
# experimental context: read-out: PPB (converted)
reported property: fraction unbound

> print(dat)
                                        smi  quantitative.readout
1  CSc1cc(C)[nH]c(=O)c1CNC(=O)c1c(C)n([C@H](C)C2CCN(CC(F)(F)F)CC2)c2ccccc12                  0.03
2  CSc1cc(C)[nH]c(=O)c1CNC(=O)c1c(C)n([C@H](C)[C@H]2CC[C@H](N3CC(OC4CC4)C3)CC2)c2ncccc12                  0.03

* * *

# target or test system: Histone-lysine N-methyltransferase EZH2 (Homo sapiens, UniProt Q15910)
# Sequence (Q15910 whole entry): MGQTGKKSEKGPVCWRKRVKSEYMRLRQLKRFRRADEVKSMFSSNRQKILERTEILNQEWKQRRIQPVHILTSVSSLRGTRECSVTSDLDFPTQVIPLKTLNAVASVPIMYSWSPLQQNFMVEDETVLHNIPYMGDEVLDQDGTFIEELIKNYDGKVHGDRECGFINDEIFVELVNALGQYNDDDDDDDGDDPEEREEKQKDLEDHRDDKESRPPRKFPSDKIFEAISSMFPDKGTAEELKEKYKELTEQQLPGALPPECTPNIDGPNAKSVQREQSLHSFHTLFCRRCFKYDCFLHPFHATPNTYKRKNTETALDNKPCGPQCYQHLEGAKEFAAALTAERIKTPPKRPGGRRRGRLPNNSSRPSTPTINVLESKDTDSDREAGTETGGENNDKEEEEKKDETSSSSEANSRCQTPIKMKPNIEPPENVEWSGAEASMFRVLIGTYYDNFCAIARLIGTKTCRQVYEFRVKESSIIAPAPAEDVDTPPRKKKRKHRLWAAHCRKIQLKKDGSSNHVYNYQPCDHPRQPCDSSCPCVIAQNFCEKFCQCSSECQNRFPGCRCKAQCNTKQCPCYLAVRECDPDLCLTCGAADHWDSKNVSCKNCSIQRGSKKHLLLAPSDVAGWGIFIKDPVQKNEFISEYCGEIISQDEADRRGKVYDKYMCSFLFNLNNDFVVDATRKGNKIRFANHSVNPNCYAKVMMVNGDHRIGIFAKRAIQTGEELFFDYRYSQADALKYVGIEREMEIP
# test method notes: Inhibition of N-terminal FLAG-tagged EZH2 in PRC2 complex (unknown origin) expressed in baculovirus infected Sf9 cells using H2N-RKQLATKAAR(Kme0)SAPATGGVKKP-NTPEGBiot peptide as substrate preincubated with [3H]SAM for 4 to 5 hrs followed by substrate addition and measured after 20 hrs by Topcount reader analysis
# maps each entry to its log10 IC50
reported property: log10 IC50 (log10 of the value in nM)

> print(dat)
                                    compound                     target.or.test.system  quantitative.readout
 1  CSc1cc(C)[nH]c(=O)c1CNC(=O)c1c(C)n([C@H](C)[C@H]2CC[C@H](N3CC(OC4CC4)C3)CC2)c2ncncc12  Histone-lysine N-methyltransferase EZH2 (Homo sapiens, UniProt Q15910)                 -1.00
 2  CSc1cc(C)[nH]c(=O)c1CNC(=O)c1c(C)n([C@H](C)[C@H]2CC[C@H](N3CC(OC4CC4)C3)CC2)c2ncccc12  Histone-lysine N-methyltransferase EZH2 (Homo sapiens, UniProt Q15910)                 -1.24
 3  CSc1cc(C)[nH]c(=O)c1CNC(=O)c1c(C)n([C@H](C)[C@H]2CC[C@H](N3CC(OC4CC4)C3)CC2)c2ncc(Cl)cc12  Histone-lysine N-methyltransferase EZH2 (Homo sapiens, UniProt Q15910)                 -1.04
 4  Cc1cc(Sc2ccccc2)c(CNC(=O)c2c(C)n([C@H](C)C3CCN(CC(F)(F)F)CC3)c3ccccc23)c(=O)[nH]1  Histone-lysine N-methyltransferase EZH2 (Homo sapiens, UniProt Q15910)                 -0.21
 5  CSc1cc(C)[nH]c(=O)c1CNC(=O)c1c(C)n([C@H](C)[C@H]2CC[C@H](N3CC(OC(F)F)C3)CC2)c2ccccc12  Histone-lysine N-methyltransferase EZH2 (Homo sapiens, UniProt Q15910)                 -1.00
 6  CSc1cc(C)[nH]c(=O)c1CNC(=O)c1c(C)n([C@H](C)[C@H]2CC[C@H](N3CC(OC4CC4)C3)CC2)c2ccccc12  Histone-lysine N-methyltransferase EZH2 (Homo sapiens, UniProt Q15910)                 -1.14
 7  CCSc1cc(C)[nH]c(=O)c1CNC(=O)c1c(C)n([C@H](C)C2CCN(CC(F)(F)F)CC2)c2ccccc12  Histone-lysine N-methyltransferase EZH2 (Homo sapiens, UniProt Q15910)                 -0.14
 8  Cc1cc([S+](C)[O-])c(CNC(=O)c2c(C)n([C@H](C)C3CCN(CC(F)(F)F)CC3)c3ccccc23)c(=O)[nH]1 (stereo partly specified)  Histone-lysine N-methyltransferase EZH2 (Homo sapiens, UniProt Q15910)                  1.28
 9  COC1CN([C@H]2CC[C@H]([C@@H](C)n3c(C)c(C(=O)NCc4c(SC)cc(C)[nH]c4=O)c4ccccc43)CC2)C1  Histone-lysine N-methyltransferase EZH2 (Homo sapiens, UniProt Q15910)                 -1.23
10  CSc1cc(C)[nH]c(=O)c1CNC(=O)c1c(C)n([C@H](C)[C@H]2CC[C@H](NC3COC3)CC2)c2ccccc12  Histone-lysine N-methyltransferase EZH2 (Homo sapiens, UniProt Q15910)                 -0.89
11  Cc1cc(SC2CCC2)c(CNC(=O)c2c(C)n([C@H](C)C3CCN(CC(F)(F)F)CC3)c3ccccc23)c(=O)[nH]1  Histone-lysine N-methyltransferase EZH2 (Homo sapiens, UniProt Q15910)                 -0.31

Source: ChEMBL document CHEMBL4616701
